system: OVCAR-8 ovarian; experiment: NCI tumour cell line growth inhibition, 48 h
result-type: TGI

Recorded TGI for OCC#CCCCCOCC#Cc1ccccc1C#CCOCCCCC#CCO , please?
> 100 µM

TGI lookup needed for CN(C)CCC(/C=C/c1ccccc1)=N\Nc1ccc(Cl)cc1 , thanks.
14 µM

Fill in: TGI of CC1NCCc2c1[nH]c1cc(O)ccc21 (stereo not drawn) is ___
> 100 µM

I'd like to know its TGI. The compound in question is O=C1COc2cc3c(cc2N1)SCCC(=O)N3
> 100 µM

Can you look up the measured TGI of CCOc1ccc(NC(=O)c2cc3ccccc3cc2O)cc1 for me?
> 100 µM

Quick one: TGI of OCCSCC/C(=N\N=C(/CCSCCO)c1ccccc1)c1ccccc1 ?
> 100 µM

Quick one: TGI for CC(CC(C)[C@H]1CCC2[C@H]3C(CC(=O)[C@@]21C)[C@@]1(C)CCC(O)C[C@H]1C[C@@H]3O)C(=O)O (stereo partly drawn) ?
> 100 µM

For the compound shown here, CN(C)CCCN1c2ccc(O)cc2Sc2ccc(Cl)cc21 , give the reported TGI.
30.5 µM

Name the recorded TGI for CN(N=O)C(=O)Nc1ccc(C(=O)O)cc1 .
> 100 µM

What value of TGI has been reported for the following compound? CN(C)CCN=C1Nc2ccccc2C(=O)N2CSCC12 (stereo not drawn)
> 100 µM

What TGI value was documented for this compound, Cc1ncc(COP(=O)(O)O)c(C)c1O ?
> 100 µM

Can you look up the measured TGI of CC1(C)CC2C(/C1=N/O)C1(C)CCCC2(C)C1O (stereo not drawn) for me?
> 100 µM

Reported TGI, compound Nc1ncc(N)c(NCC2(CO)CC(CCc3ccccc3)C2)n1 (stereo not drawn) : ____
23.7 µM
